measurementType: melting point

CCCCCc1ccc(-c2cn(-c3ccc(S(N)(=O)=O)cc3)nn2)cc1    253 to 256 °C
NS(=O)(=O)c1ccc(-n2cc(-c3ccccc3)nn2)cc1    260 to 261 °C
NS(=O)(=O)c1c(F)c(F)c(-n2cc(CO)nn2)c(F)c1F [Compound 10b]    133 to 134 °C
NS(=O)(=O)c1ccc(-n2cc(CO)nn2)cc1    195 to 197 °C
CCCCCc1ccc(-c2cn(-c3c(F)c(F)c(S(N)(=O)=O)c(F)c3F)nn2)cc1 [Compound 10d]    197 to 198 °C

====

In this section we review reported IC50 values for a set of compounds.
biological target: HIV-1 RT-associated RNase H (Human immunodeficiency virus type 1 group M subtype B, UniProt P04585); construct: The recombinant HIV-1 RT protein; His tag; assay: HIV-1 RNase H polymerase-independent cleavage assay; details: compound concentration required to inhibit the HIV-1 RNase H activity by 50%; recombinant HIV-1 RT
measurementType: IC50

NCc1cn(-c2ccc(S(N)(=O)=O)cc2)nn1    > 100 µM
NS(=O)(=O)c1ccc(-n2cc(-c3ccccc3)nn2)cc1    > 100 µM
CCOC(=O)C(=O)CC(=O)/C=C/c1cccn1Cc1ccccc1Cl [RDS1759, reference compound]    7 µM
NS(=O)(=O)c1ccc(-n2cc(CO)nn2)cc1    > 100 µM
